The measurements presented in this section are drawn from ChEMBL document CHEMBL4689842.

# Test system: Fibroblast
# test_protocol: Multiplex assay against human fibroblast
# Format: toxicity, cell-based
# reported_conditions: 48 h, 1 µM, compound concentration 1 uM, replicate 1
I'd be grateful if you could share measured Population Normal (%) for these entries.
Response body: numeric value in %, unit text excluded.

Problem: Enter Population Normal (%) (test system Fibroblast) for C[C@@H](Oc1cc(-n2cnc3ccc(CN4CCN(C)CC4)cc32)sc1C(N)=O)c1ccccc1C(F)(F)F [GSK-461364]
Solution: 78

Problem: Enter Population Normal (%) (test system Fibroblast) for CC(C)c1cc(Nc2nc(N3CCC[C@H](N)C3)ncc2C(N)=O)cc(C(C)C)n1
Solution: 62

Problem: Enter Population Normal (%) (test system Fibroblast) for CN1C(=O)[C@@H](NC(=O)c2cc3ccccc3[nH]2)N=C(c2ccccc2)c2ccccc21 [DEVAZEPIDE]
Solution: 77

Problem: Enter Population Normal (%) (test system Fibroblast) for C=CC(=O)Nc1cc(-n2c(=O)ccc3cnc4ccc(-c5ccc(NS(C)(=O)=O)cc5)cc4c32)ccc1C
Solution: 93

Problem: Enter Population Normal (%) (test system Fibroblast) for CC(Cc1ccc(O)c(O)c1)C(C)Cc1ccc(O)c(O)c1 (stereo unspecified) [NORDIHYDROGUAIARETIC ACID]
Solution: 91

Problem: Enter Population Normal (%) (test system Fibroblast) for CCCCN(CC)c1nc(C)nc2c1c(C)cn2-c1c(C)cc(C)cc1C.Cl
Solution: 83

Problem: Enter Population Normal (%) (test system Fibroblast) for CC(C)[C@H](CO)Nc1nc(Nc2cccc(Cl)c2)c2ncn(C(C)C)c2n1 [PURVALANOLA]
Solution: 80

Problem: Enter Population Normal (%) (test system Fibroblast) for CN(c1cc(C(F)(F)F)nc(OCCC(=O)O)n1)c1cccc2c1CCC2
Solution: 79

Problem: Enter Population Normal (%) (test system Fibroblast) for CC(/C=C1\SC(=S)N(CCCC(=O)Nc2ccc(C(=O)O)c(O)c2)C1=O)=C\c1ccccc1
Solution: 85

Problem: Enter Population Normal (%) (test system Fibroblast) for Cl.NC[C@@H]1O[C@H](C23CC4CC(CC(C4)C2)C3)Cc2c1ccc(O)c2O
Solution: 88

Problem: Enter Population Normal (%) (test system Fibroblast) for CCCc1cc(C)[nH]c(=O)c1CNC(=O)c1cc(-c2ccc(N3CCN(C(C)C)CC3)nc2)cc2c1cnn2C(C)C
Solution: 79

----------
I'd be grateful if you could share measured Total Cell Count for these entries.
# System: U2OS
# test_protocol: Multiplex assay against U2OS
# Type: toxicity, cell-based
# reported_conditions: human, 12 h, 10 µM, compound concentration 10 uM, replicate 1
Lab note: write the figure by itself, no unit.

Problem: Enter Total Cell Count (test system U2OS) for Cc1c(P(=S)(c2ccccc2)c2ccccc2)n2ccccc2[n+]1C/C=C/c1ccccc1.[Br-]
Solution: 121

Problem: Enter Total Cell Count (test system U2OS) for C=CC(=O)Nc1cc(-n2c(=O)ccc3cnc4ccc(-c5ccc(NS(C)(=O)=O)cc5)cc4c32)ccc1C
Solution: 173

Problem: Enter Total Cell Count (test system U2OS) for N#CCNC(=O)c1ccc(-c2ccnc(Nc3ccc(N4CCOCC4)cc3)n2)cc1
Solution: 180

Problem: Enter Total Cell Count (test system U2OS) for C[C@@H](Oc1cc(-n2cnc3ccc(CN4CCN(C)CC4)cc32)sc1C(N)=O)c1ccccc1C(F)(F)F
Solution: 137

Problem: Enter Total Cell Count (test system U2OS) for c1ccc(-c2oc3ncnc(NC[C@@H]4CCCO4)c3c2-c2ccccc2)cc1
Solution: 137

Problem: Enter Total Cell Count (test system U2OS) for CCCCN(CC)c1nc(C)nc2c1c(C)cn2-c1c(C)cc(C)cc1C.Cl
Solution: 145

Problem: Enter Total Cell Count (test system U2OS) for NC(=O)c1ccc2nc(-c3ccc(C4(N)CCC4)cc3)c(-c3ccccc3)n2n1
Solution: 210

Problem: Enter Total Cell Count (test system U2OS) for CC[C@@]1(O)C(=O)OCc2c1cc1n(c2=O)Cc2cc3ccccc3nc2-1
Solution: 161

----------
I'd be grateful if you could share measured Population Healthy Nuclei (%) for these entries.
# System: Fibroblast
# test_protocol: Multiplex assay against human fibroblast
# Format: toxicity, cell-based
# reported_conditions: 48 h, 1 µM, compound concentration 1 uM, replicate 2
Response body: numeric value in %, unit text excluded.

Problem: Output Population Healthy Nuclei (%) of CC(Cc1ccc(O)c(O)c1)C(C)Cc1ccc(O)c(O)c1 (stereo not given) [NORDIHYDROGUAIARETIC ACID]
Solution: 70

Problem: Output Population Healthy Nuclei (%) of C=CC(=O)Nc1cc(-n2c(=O)ccc3cnc4ccc(-c5ccc(NS(C)(=O)=O)cc5)cc4c32)ccc1C
Solution: 65

Problem: Output Population Healthy Nuclei (%) of CN(c1cc(C(F)(F)F)nc(OCCC(=O)O)n1)c1cccc2c1CCC2
Solution: 76

Problem: Output Population Healthy Nuclei (%) of CC(C)c1cc(Nc2nc(N3CCC[C@H](N)C3)ncc2C(N)=O)cc(C(C)C)n1
Solution: 56

Problem: Output Population Healthy Nuclei (%) of N#Cc1cccc(C(=O)Nc2cc(-c3ccccc3)nn2-c2ccccc2)c1
Solution: 69

Problem: Output Population Healthy Nuclei (%) of CCCCN(CC)c1nc(C)nc2c1c(C)cn2-c1c(C)cc(C)cc1C.Cl
Solution: 71

Problem: Output Population Healthy Nuclei (%) of CCCCCNC(=N)N/N=C/c1c[nH]c2ccc(OC)cc12.O=C(O)/C=C\C(=O)O [TEGASEROD MALEATE]
Solution: 72

Problem: Output Population Healthy Nuclei (%) of Cc1ccc(S(=O)(=O)NC2c3ccccc3Oc3ccccc32)cc1
Solution: 75

Problem: Output Population Healthy Nuclei (%) of CC(C)[C@H](CO)Nc1nc(Nc2cccc(Cl)c2)c2ncn(C(C)C)c2n1 [PURVALANOLA]
Solution: 73

Problem: Output Population Healthy Nuclei (%) of N#CCNC(=O)c1ccc(-c2ccnc(Nc3ccc(N4CCOCC4)cc3)n2)cc1 [MOMELOTINIB]
Solution: 61

----------
# System: HEK-293T
# test_protocol: Multiplex assay against HEK293T
# Assay type: toxicity, cell-based
# reported_conditions: human, 12 h, 10 µM, compound concentration 10 uM, replicate 1
quantity_kind: Total Cell Count

Problem: Output Total Cell Count of Oc1cccc(-c2nc(N3CCOCC3)c3oc4ncccc4c3n2)c1
Solution: 269

Problem: Output Total Cell Count of CS(=O)(=O)N1CCCC(NC(=O)[C@H](CCC2CCCCC2)NC(=O)c2ccc(CNC(=O)c3cnc4ccccn34)cc2)C1 (some centres undefined)
Solution: 331 [middle of 4 runs]

Problem: Output Total Cell Count of CC[C@H](Nc1ncnc2[nH]cnc12)c1nc2cccc(F)c2c(=O)n1-c1ccccc1
Solution: 500

Problem: Output Total Cell Count of N#CCNC(=O)c1ccc(-c2ccnc(Nc3ccc(N4CCOCC4)cc3)n2)cc1
Solution: 432

Problem: Output Total Cell Count of CC(Cc1ccc(O)c(O)c1)C(C)Cc1ccc(O)c(O)c1 (centres undefined) [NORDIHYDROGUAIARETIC ACID]
Solution: 211

Problem: Output Total Cell Count of NC(=O)c1ccc2nc(-c3ccc(C4(N)CCC4)cc3)c(-c3ccccc3)n2n1
Solution: 611

Problem: Output Total Cell Count of CC(C)[C@H](CO)Nc1nc(Nc2cccc(Cl)c2)c2ncn(C(C)C)c2n1
Solution: 324

Problem: Output Total Cell Count of CC(C)C[C@H](NC(=O)[C@H](Cc1ccccc1)NC(=O)CNC(=O)CNC(=O)[C@@H](N)Cc1ccc(O)cc1)C(=O)O
Solution: 230

Problem: Output Total Cell Count of CC[C@@]1(O)C(=O)OCc2c1cc1n(c2=O)Cc2cc3ccccc3nc2-1
Solution: 665

Problem: Output Total Cell Count of Cc1c(Nc2ccc(S(=O)(=O)N3CCN(C)CC3)cc2F)nc2ccc(Nc3cnn(C4CC4)c3)cn2c1=O
Solution: 791

Problem: Output Total Cell Count of Cc1c(P(=S)(c2ccccc2)c2ccccc2)n2ccccc2[n+]1C/C=C/c1ccccc1.[Br-]
Solution: 398

Problem: Output Total Cell Count of CCCCN(CC)c1nc(C)nc2c1c(C)cn2-c1c(C)cc(C)cc1C.Cl
Solution: 236

Problem: Output Total Cell Count of C[C@@H](Oc1cc(-n2cnc3ccc(CN4CCN(C)CC4)cc32)sc1C(N)=O)c1ccccc1C(F)(F)F
Solution: 294

Problem: Output Total Cell Count of C=CC(=O)Nc1cc(-n2c(=O)ccc3cnc4ccc(-c5ccc(NS(C)(=O)=O)cc5)cc4c32)ccc1C
Solution: 184

Problem: Output Total Cell Count of Cc1ccc(S(=O)(=O)NC2c3ccccc3Oc3ccccc32)cc1
Solution: 398

Problem: Output Total Cell Count of CC[C@@H]1C(=O)N(C)c2cnc(Nc3ccc(C(=O)NC4CCN(C)CC4)cc3OC)nc2N1C1CCCC1
Solution: 497

Problem: Output Total Cell Count of CCOC(=O)CCNc1cc(N2CCc3ccccc3CC2)nc(-c2ccccn2)n1
Solution: 622

Problem: Output Total Cell Count of N#Cc1cccc(C(=O)Nc2cc(-c3ccccc3)nn2-c2ccccc2)c1
Solution: 300

Problem: Output Total Cell Count of c1ccc(-c2oc3ncnc(NC[C@@H]4CCCO4)c3c2-c2ccccc2)cc1
Solution: 263

Problem: Output Total Cell Count of Cc1ccc(NC(=O)Nc2cc(C(F)(F)F)ccc2F)cc1Nc1ccc2c(c1)NC(=O)/C2=C\c1ccc[nH]1
Solution: 577

Problem: Output Total Cell Count of CC(/C=C1\SC(=S)N(CCCC(=O)Nc2ccc(C(=O)O)c(O)c2)C1=O)=C\c1ccccc1
Solution: 255

Problem: Output Total Cell Count of CC(C)c1cc(Nc2nc(N3CCC[C@H](N)C3)ncc2C(N)=O)cc(C(C)C)n1
Solution: 313

Problem: Output Total Cell Count of Cl.NC[C@@H]1O[C@H](C23CC4CC(CC(C4)C2)C3)Cc2c1ccc(O)c2O
Solution: 245

Problem: Output Total Cell Count of CCCc1cc(C)[nH]c(=O)c1CNC(=O)c1cc(-c2ccc(N3CCN(C(C)C)CC3)nc2)cc2c1cnn2C(C)C
Solution: 231

Problem: Output Total Cell Count of CCOc1ccn(-c2ccc(F)cc2)c(=O)c1C(=O)Nc1ccc(Oc2ccnc(N)c2Cl)c(F)c1
Solution: 432

Problem: Output Total Cell Count of Cl.Cn1c2c(c3ccc(Cl)c(Cl)c31)C(C#N)C1(CCNCC1)NC2=O (centres undefined)
Solution: 698

Problem: Output Total Cell Count of CCCCCNC(=N)N/N=C/c1c[nH]c2ccc(OC)cc12.O=C(O)/C=C\C(=O)O [TEGASEROD MALEATE]
Solution: 295

Problem: Output Total Cell Count of CN(c1cc(C(F)(F)F)nc(OCCC(=O)O)n1)c1cccc2c1CCC2
Solution: 223

Problem: Output Total Cell Count of CN1C(=O)[C@@H](NC(=O)c2cc3ccccc3[nH]2)N=C(c2ccccc2)c2ccccc21 [DEVAZEPIDE]
Solution: 287
